tested on: Citrated plasma; experiment: Measurement of PT (prothrombin time) in citrated plasma; format: biochemical; details: STA-Neoplastine, 37° C., unit not given (2×PT value)
Under this convention, satisfied denotes PT strictly below 0.05 and not satisfied denotes PT at or above 0.05.

Study these solved cases before continuing.
CN1CCCN=C1c1ccc(N2C[C@H](CNC(=O)c3ccc(Cl)s3)OC2=O)cc1 : not satisfied
COC(=O)C1(C2=NCCN2c2ccc(N3C[C@H](CNC(=O)c4ccc(Cl)s4)OC3=O)cc2)CC1 : not satisfied
CCN1CCN=C1c1ccc(N2C[C@H](CNC(=O)c3ccc(Cl)s3)OC2=O)cc1 : satisfied
O=C(NC[C@H]1CN(c2ccc(C3=NCCN3)cc2)C(=O)O1)c1ccc(Cl)s1 : not satisfied
Cc1ccc(C2=NCCN2c2ccc(N3C[C@H](CNC(=O)c4ccc(Cl)s4)OC3=O)cc2)cc1 : not satisfied
O=C(NC[C@H]1CN(c2ccc(N3CCOCC3=O)cc2)C(=O)O1)c1ccc(Cl)s1 [Rivaroxaban, reference compound] : not satisfied
O=C(NC[C@H]1CN(c2ccc(N3CCN=C3c3ccc(Cl)s3)cc2)C(=O)O1)c1ccc(Br)s1 : not satisfied
CC1=NCCN1c1ccc(N2C[C@H](CNC(=O)c3ccc(Br)s3)OC2=O)cc1 : satisfied

Does the reported PT of the following molecule sit strictly below 0.05? CN1CCCN=C1c1ccc(N2C[C@H](CNC(=O)c3ccc(Cl)s3)OC2=O)cc1Cl
not satisfied

Does the reported PT of the following molecule sit strictly below 0.05? CCC1=NCCCN1c1ccc(N2C[C@H](CNC(=O)c3ccc(Cl)s3)OC2=O)cc1
satisfied

Does the reported PT of the following molecule sit strictly below 0.05? CC(C)CC1=NCCN1c1ccc(N2C[C@H](CNC(=O)c3ccc(Cl)s3)OC2=O)cc1
satisfied

Does the reported PT of the following molecule sit strictly below 0.05? COC(=O)C(C)(C)C1=NCCN1c1ccc(N2C[C@H](CNC(=O)c3ccc(Cl)s3)OC2=O)cc1
not satisfied

Does the reported PT of the following molecule sit strictly below 0.05? O=C(NC[C@H]1CN(c2ccc(N3CCN=C3c3cccnc3)cc2)C(=O)O1)c1ccc(Cl)s1
not satisfied

====

test system: plasma protein; test: Determination of plasma protein binding (ultrafiltration, LC-MS/MS); assay type: in vitro ADME; conditions: citrated plasma, 37° C., 60 minutes, Ultracel-10 filter
MEASURED_ENDPOINT: Plasma protein binding (% Free)
Respond with the figure and its unit, in that order.

Example entries begin here.
O=C(NC[C@H]1CN(c2ccc(C3=NCCN3)cc2)C(=O)O1)c1ccc(Cl)s1 : 17 % Free
CCN1CCN=C1c1ccc(N2C[C@H](CNC(=O)c3ccc(Cl)s3)OC2=O)cc1 : 28 % Free

Note: attention shifts to another entry.
Param item = CN1CCN=C1c1ccc(N2C[C@H](CNC(=O)c3ccc(Cl)s3)OC2=O)cc1 ; retrieve measured Plasma protein binding (% Free).
23 % Free

====

tested on: plasma protein; assay: Determination of plasma protein binding (ultrafiltration, LC-MS/MS); assay type: in vitro ADME; conditions: citrated plasma, 37° C., 60 minutes, Ultracel-10 filter
MEASURED_ENDPOINT: Plasma protein binding (% Free)
Unit % Free implied. Number only.

Example entries begin here.
O=C(NC[C@H]1CN(c2ccc(N3CCOCC3=O)cc2)C(=O)O1)c1ccc(Cl)s1 [Rivaroxaban, reference compound] : 9
O=C(NC[C@H]1CN(c2ccc(N3CCN=C3c3ccco3)cc2)C(=O)O1)c1ccc(Cl)s1 : 3

Param item = CN1CCCN=C1c1ccc(N2C[C@H](CNC(=O)c3ccc(Cl)s3)OC2=O)cc1 ; retrieve measured Plasma protein binding (% Free).
31

Param item = O=C(NC[C@H]1CN(c2ccc(N3CCN=C3C3CC3)cc2)C(=O)O1)c1ccc(Cl)s1 ; retrieve measured Plasma protein binding (% Free).
17
